target: human CYP2D6 (Homo sapiens, UniProt P10635); assay: biochemical; settings: IC50 CYP2D6 assay
Sequence (P10635 whole entry): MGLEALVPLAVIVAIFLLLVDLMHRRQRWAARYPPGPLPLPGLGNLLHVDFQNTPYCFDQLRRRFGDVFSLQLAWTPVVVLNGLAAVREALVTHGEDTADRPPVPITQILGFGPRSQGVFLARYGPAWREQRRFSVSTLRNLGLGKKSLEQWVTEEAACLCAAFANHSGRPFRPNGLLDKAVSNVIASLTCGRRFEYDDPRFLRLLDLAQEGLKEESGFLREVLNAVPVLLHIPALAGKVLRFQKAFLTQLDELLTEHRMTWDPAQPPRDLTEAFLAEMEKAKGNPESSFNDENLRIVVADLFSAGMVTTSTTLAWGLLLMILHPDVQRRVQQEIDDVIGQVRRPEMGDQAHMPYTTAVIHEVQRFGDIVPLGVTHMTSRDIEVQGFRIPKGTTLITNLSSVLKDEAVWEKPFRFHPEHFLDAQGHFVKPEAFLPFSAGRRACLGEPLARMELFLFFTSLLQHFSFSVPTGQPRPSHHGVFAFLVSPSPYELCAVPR
quantityKind: IC50 (µM)
Give bare numbers, in µM.

-- ask What does the data say about its IC50? Entry: CC(CN(C)C)CN1c2ccccc2CCc2ccccc21 (stereo not shown) [trimipramine, reference compound]
-- reply 3.1

###

biological target: CYP3A4 (Homo sapiens); assay: biochemical; conditions: CYP3A4 IC50 (half-maximal inhibitory concentration)
Sequence (P08684 whole entry): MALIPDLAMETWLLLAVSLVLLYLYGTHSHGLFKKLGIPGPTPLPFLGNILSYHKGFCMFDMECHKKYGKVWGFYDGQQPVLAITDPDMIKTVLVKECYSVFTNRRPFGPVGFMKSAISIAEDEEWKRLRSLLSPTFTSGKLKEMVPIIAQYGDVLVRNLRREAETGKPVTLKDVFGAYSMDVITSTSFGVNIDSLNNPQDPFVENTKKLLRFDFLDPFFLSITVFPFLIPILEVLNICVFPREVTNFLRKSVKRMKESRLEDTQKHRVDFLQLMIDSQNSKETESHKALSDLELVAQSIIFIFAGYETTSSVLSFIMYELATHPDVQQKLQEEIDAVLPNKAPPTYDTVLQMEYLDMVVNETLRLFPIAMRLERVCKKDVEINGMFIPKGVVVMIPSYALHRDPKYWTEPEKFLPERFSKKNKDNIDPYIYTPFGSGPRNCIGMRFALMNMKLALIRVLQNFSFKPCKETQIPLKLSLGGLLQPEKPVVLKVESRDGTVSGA
quantityKind: pIC50
Numbers only, as −log10 of the molar value.

Some molecules with known pIC50 results, for comparison:
-- ask What does the data say about its pIC50? Entry: CCOP(=S)(OCC)SCn1nnc2ccccc2c1=O [Azinphos-ethyl]
-- reply 5.73

-- ask Again, but for CCCCC(C#N)(Cn1cncn1)c1ccc(Cl)cc1 (centres unmarked) [Myclobutanil]
-- reply 6.77

-- ask Again, but for CCOCn1c(-c2ccc(Cl)cc2)c(C#N)c(Br)c1C(F)(F)F [Chlorfenapyr]
-- reply 4.43

-- ask Again, but for Clc1ccc(C2(Cn3cncn3)OCCO2)c(Cl)c1 [Azaconazole]
-- reply 6.32

-- ask Again, but for Oc1ccc2ccc3cccc4ccc1c2c34 [1-Hydroxypyrene]
-- reply 4.56

For each listed entry, give its pIC50.
1. COc1ccc(-c2ccccc2)cc1NNC(=O)OC(C)C [Bifenazate]
2. Cc1cc(O)c(C(C)(C)C)cc1Sc1cc(C(C)(C)C)c(O)cc1C [4,4'-Thiobis(6-tert-butyl-m-cresol)]

-- reply
1: 5.82; 2: 5.14

For each listed entry, give its pIC50.
1. COc1ccc(C(O)(c2cncnc2)C2CC2)cc1 (centres unmarked) [Ancymidol]
2. O=S(=O)(Oc1ccc(Cl)cc1)c1ccc(Cl)cc1 [Chlorfenson]
3. FC(F)C(F)(F)OCC(Cn1cncn1)c1ccc(Cl)cc1Cl (centres unmarked) [Tetraconazole]
4. CC(C)(C)C(=O)C(Oc1ccc(Cl)cc1)n1cncn1 (centres unmarked) [Triadimefon]

-- reply
6.10
5.17
6.60
6.35

For each listed entry, give its pIC50.
1. CC(C)C1CCC(Cc2ccc(Cl)cc2)C1(O)Cn1cncn1 (centres unmarked) [Ipconazole]
2. CCCN(CCOc1c(Cl)cc(Cl)cc1Cl)C(=O)n1ccnc1 [Prochloraz]
3. CCN(CC)C(=O)C(C)Oc1cccc2ccccc12 (centres unmarked) [Napropamide]
4. COc1cccc(C(=O)NN(C(=O)c2cc(C)cc(C)c2)C(C)(C)C)c1C [Methoxyfenozide]
5. N#CC(CCc1ccc(Cl)cc1)(Cn1cncn1)c1ccccc1 (centres unmarked) [Fenbuconazole]
6. COc1c2ccoc2cc2oc(=O)ccc12 [5-Methoxypsoralen]
7. C[C@H]1CCCC(=O)CCC/C=C/c2cc(O)cc(O)c2C(=O)O1 [Zearalenone]

-- reply
7.30
7.15
5.12
6.13
7.30
5.04
6.92

For each listed entry, give its pIC50.
1. CCOc1cc(C(C)(C)C)ccc1C1COC(c2c(F)cccc2F)=N1 (centres unmarked) [Etoxazole]
2. O=S(=O)(Oc1ccc(Cl)cc1Cl)c1ccccc1 [2,4-Dichlorophenyl benzenesulfonate]

-- reply
6.96
5.67

###

Give measured AC50 for each item. Keep answers brief.
molecular target: CYP3A4 (Homo sapiens); experiment: biochemical; details: CYP3A4 AC50 (half-maximal activity concentration)
Numbers only, in µM.

-- ask What does the data say about its AC50? Entry: Oc1c(Br)cc(Br)cc1Br [2,4,6-Tribromophenol]
-- reply 72.8

-- ask Again, but for Nc1cc(Cl)cc(Cl)c1 [3,5-Dichloroaniline]
-- reply 43.2

-- ask Again, but for O=C(O)c1cccc(C(=O)O)c1 [1,3-Benzenedicarboxylic acid]
-- reply 9.6

-- ask Again, but for O=C(C=Cc1ccccc1)OCC=Cc1ccccc1 [3-Phenyl-2-propen-1-yl 3-phenylacrylate]
-- reply 24.9

# input for lookup
-- ask What does the data say about its AC50? Entry: Cc1ccc2c(c1N)C(=O)c1ccccc1C2=O [1-Amino-2-methylanthraquinone]
-- reply 0.32

###

Give measured pIC50 for each item. Keep answers brief.
Target: UniProtKB P05177
Sequence (P05177 1-516): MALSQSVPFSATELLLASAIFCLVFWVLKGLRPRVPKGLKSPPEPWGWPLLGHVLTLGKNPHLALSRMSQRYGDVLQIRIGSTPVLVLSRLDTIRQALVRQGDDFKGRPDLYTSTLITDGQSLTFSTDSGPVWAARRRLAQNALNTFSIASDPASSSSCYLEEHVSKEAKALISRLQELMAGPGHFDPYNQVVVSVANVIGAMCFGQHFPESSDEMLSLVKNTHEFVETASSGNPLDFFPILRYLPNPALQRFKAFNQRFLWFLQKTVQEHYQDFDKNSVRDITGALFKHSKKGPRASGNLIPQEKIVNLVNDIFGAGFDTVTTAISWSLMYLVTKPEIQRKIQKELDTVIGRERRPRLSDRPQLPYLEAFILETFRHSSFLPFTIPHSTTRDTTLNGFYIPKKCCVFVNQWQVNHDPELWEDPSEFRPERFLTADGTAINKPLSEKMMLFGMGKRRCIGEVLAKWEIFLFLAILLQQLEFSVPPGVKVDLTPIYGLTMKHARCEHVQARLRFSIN
One number for each entry, as −log10 of the molar value.

Some compounds with known pIC50 results, for comparison:
-- ask What does the data say about its pIC50? Entry: CCOP(=O)([O-])OCC.CCn1cc[n+](C)c1
-- reply 4.10

-- ask Again, but for O=C1CCCc2c1cc1ccc3cccc4ccc2c1c34 [9,10-Dihydrobenzo[a]pyren-7(8H)-one]
-- reply 6.55

-- ask Again, but for Cc1[nH]cnc1C[C@H]1CCc2c(C)c3ccccc3n2C1=O.Cl [Fabesetron hydrochloride]
-- reply 5.81

-- ask Again, but for COC(=O)c1c(C)cc(O)c(C)c1O
-- reply 6.62

For each listed entry, give its pIC50.
1. CC(=O)CCc1ccc2c(c1)OCO2
2. OCC(c1ccc(Cl)cc1)c1ccc(Cl)cc1
3. COc1cc2c(cc1N)oc1ccccc12
4. Cl.FC(F)(F)c1cccc(C2=CCN(CCc3ccc4ccccc4c3)CC2)c1 [Xaliproden hydrochloride]
5. C[C@@H]1CN(CCCn2c3ccccc3c3ccccc32)C[C@H](C)N1.Cl.Cl [Rimcazole dihydrochloride]

-- reply
6.12
4.46
6.20
4.54
4.97

###

molecular target: human CYP1A2 (Homo sapiens)
Where a name gives a salt, the structure may show the parent alone.
quantityKind: CYP1A2 AC50 (half-maximal activity concentration)

Some compounds with known CYP1A2 AC50 (half-maximal activity concentration) results, for comparison:
-- ask Return CYP1A2 AC50 (half-maximal activity concentration) measured with human CYP1A2 (Homo sapiens) given this compound: Cc1ccc(S(=O)(=O)NCl)cc1 [Chloramine-T trihydrate]
-- reply Inconclusive inhibitor

-- ask Again, but for O=C(Cl)c1cc(Cl)cc(Cl)c1 [3,5-Dichlorobenzoyl chloride]
-- reply Inactive

-- ask Again, but for CCSC(=O)N(CC)C1CCCCC1 [Cycloate]
-- reply Inactive

-- ask Again, but for CCOC(=O)COc1ccc2c(C)c(CCN(CC)CC)c(=O)oc2c1Cl.Cl [Cloricromen hydrochloride]
-- reply Inconclusive inhibitor

# input for lookup
-- ask Return CYP1A2 AC50 (half-maximal activity concentration) measured with human CYP1A2 (Homo sapiens) given this compound: N=C(N)NC(=O)Cc1c(Cl)cccc1Cl [Guanfacine hydrochloride]
-- reply Inactive

###

# CYP3A4 IC50 (half-maximal inhibitory concentration) per entry for CYP3A4 (Homo sapiens)
Counter-ions that a name gives are not always drawn.

-- ask What does the data say about its CYP3A4 IC50 (half-maximal inhibitory concentration)? Entry: Cl.OC(CNCC(O)C1CCc2cc(F)ccc2O1)C1CCc2cc(F)ccc2O1 (racemic) [rac Nebivolol hydrochloride]
-- reply 16.12 ± 1.09 (65 ± 10) µM

-- ask Again, but for CN1CCCCC1CCN1c2ccccc2Sc2ccc([S+](C)[O-])cc21 (stereo not shown)
-- reply Inactive

-- ask Again, but for CCc1cc(Cl)c(OC)c(C(=O)NC[C@@H]2CCCN2CC)c1O.Cl [Eticlopride hydrochloride]
-- reply Inactive

-- ask Again, but for Clc1ccc(C(c2ccccc2Cl)C(Cl)(Cl)Cl)cc1 (stereo not shown)
-- reply 11.59 ± 3.23 (99 ± 19) µM

-- ask Again, but for CC(CCc1ccccc1)NCC(O)c1ccc(O)c(C(N)=O)c1 (stereo not shown) [Labetalol hydrochloride]
-- reply 34.77 ± 1.39 (96 ± 9) µM

For each listed entry, give its CYP3A4 IC50 (half-maximal inhibitory concentration).
1. CC(O)(c1ccc(Cl)cc1)c1ccc(Cl)cc1
2. CCCCCCCCCCCCCC[P+](CCCC)(CCCC)CCCC.CCCCCCCCCCCCc1ccc(S(=O)(=O)[O-])cc1
3. O=C1c2ccccc2C(=O)c2cc(Cl)ccc21
4. O=C(C(=O)c1ccc(Br)cc1)c1ccc(Br)cc1
5. CCOC(=O)C(O)(c1ccc(Cl)cc1)c1ccc(Cl)cc1 [Chlorobenzilate]
6. CCCC(Cn1cncn1)c1ccc(Cl)cc1Cl (stereo not shown)

-- reply
11.76 ± 1.5 (55 ± 6) µM
7.93 ± 2.21 (104 ± 17) µM
Inactive
Inactive
9.23 ± 2.97 (118 ± 20) µM
Inactive

Origin of measurements: paper PMC12155096
